Source listed as patent US6423689B1.

Measurement type: melting point

The cases that follow already have their melting point on record.
[[record]]
molecule = "CC(C)C[C@H](NC(=O)N1CCCCCC1)C(=O)N[C@@H](Cc1ccc(CCC2CCCCC2)cc1)C(=O)NC(C)(C)C"
result = "165 °C"

[[record]]
molecule = "CC(C)C[C@H](NC(=O)N1CCCCCC1)C(=O)N[C@@H](Cc1ccc(NCc2ccccc2)cc1)C(=O)NC(C)(C)C"
result = "89 to 90 °C"

[[record]]
molecule = "CC(C)C[C@H](NS(=O)(=O)c1ccc(C(C)C)cc1)C(=O)N[C@@H](Cc1ccc(OCc2ccccc2)cc1)C(=O)OC(C)(C)C"
result = "147 to 148 °C"

[[record]]
molecule = "CC(C)C[C@H](NC(=O)N1CCCCCC1)C(=O)N[C@@H](Cc1ccc(C#CC2(O)CCCCC2)cc1)C(=O)NC(C)(C)C"
result = "120 to 122 °C"

[[record]]
molecule = "CC(C)C[C@H](NS(=O)(=O)c1ccc(Br)cc1)C(=O)N[C@@H](Cc1ccc(OCc2ccccc2)cc1)C(=O)OC(C)(C)C"
result = "148 to 149 °C"


Query :: I have this molecule here, "CC(C)C[C@H](NC(=O)N1CCCCCC1)C(=O)N[C@@H](Cc1ccc(Cc2ccccc2)cc1)C(=O)NC(C)(C)C" , and I need its recorded melting point.
Result :: 165 to 166 °C

* * *

Inhibition of Calcium Flux in IMR-32 Cells % Inhibition at 1 μM listing for selected compounds.
- Study target: N-type Ca2+ channels in IMR-32 cells (Homo sapiens, UniProt Q00975)
- Construct: host or cells: IMR-32 cells, differentiated with dibutyryl cAMP and bromodeoxyuridine
- Sequence (Q00975 whole entry): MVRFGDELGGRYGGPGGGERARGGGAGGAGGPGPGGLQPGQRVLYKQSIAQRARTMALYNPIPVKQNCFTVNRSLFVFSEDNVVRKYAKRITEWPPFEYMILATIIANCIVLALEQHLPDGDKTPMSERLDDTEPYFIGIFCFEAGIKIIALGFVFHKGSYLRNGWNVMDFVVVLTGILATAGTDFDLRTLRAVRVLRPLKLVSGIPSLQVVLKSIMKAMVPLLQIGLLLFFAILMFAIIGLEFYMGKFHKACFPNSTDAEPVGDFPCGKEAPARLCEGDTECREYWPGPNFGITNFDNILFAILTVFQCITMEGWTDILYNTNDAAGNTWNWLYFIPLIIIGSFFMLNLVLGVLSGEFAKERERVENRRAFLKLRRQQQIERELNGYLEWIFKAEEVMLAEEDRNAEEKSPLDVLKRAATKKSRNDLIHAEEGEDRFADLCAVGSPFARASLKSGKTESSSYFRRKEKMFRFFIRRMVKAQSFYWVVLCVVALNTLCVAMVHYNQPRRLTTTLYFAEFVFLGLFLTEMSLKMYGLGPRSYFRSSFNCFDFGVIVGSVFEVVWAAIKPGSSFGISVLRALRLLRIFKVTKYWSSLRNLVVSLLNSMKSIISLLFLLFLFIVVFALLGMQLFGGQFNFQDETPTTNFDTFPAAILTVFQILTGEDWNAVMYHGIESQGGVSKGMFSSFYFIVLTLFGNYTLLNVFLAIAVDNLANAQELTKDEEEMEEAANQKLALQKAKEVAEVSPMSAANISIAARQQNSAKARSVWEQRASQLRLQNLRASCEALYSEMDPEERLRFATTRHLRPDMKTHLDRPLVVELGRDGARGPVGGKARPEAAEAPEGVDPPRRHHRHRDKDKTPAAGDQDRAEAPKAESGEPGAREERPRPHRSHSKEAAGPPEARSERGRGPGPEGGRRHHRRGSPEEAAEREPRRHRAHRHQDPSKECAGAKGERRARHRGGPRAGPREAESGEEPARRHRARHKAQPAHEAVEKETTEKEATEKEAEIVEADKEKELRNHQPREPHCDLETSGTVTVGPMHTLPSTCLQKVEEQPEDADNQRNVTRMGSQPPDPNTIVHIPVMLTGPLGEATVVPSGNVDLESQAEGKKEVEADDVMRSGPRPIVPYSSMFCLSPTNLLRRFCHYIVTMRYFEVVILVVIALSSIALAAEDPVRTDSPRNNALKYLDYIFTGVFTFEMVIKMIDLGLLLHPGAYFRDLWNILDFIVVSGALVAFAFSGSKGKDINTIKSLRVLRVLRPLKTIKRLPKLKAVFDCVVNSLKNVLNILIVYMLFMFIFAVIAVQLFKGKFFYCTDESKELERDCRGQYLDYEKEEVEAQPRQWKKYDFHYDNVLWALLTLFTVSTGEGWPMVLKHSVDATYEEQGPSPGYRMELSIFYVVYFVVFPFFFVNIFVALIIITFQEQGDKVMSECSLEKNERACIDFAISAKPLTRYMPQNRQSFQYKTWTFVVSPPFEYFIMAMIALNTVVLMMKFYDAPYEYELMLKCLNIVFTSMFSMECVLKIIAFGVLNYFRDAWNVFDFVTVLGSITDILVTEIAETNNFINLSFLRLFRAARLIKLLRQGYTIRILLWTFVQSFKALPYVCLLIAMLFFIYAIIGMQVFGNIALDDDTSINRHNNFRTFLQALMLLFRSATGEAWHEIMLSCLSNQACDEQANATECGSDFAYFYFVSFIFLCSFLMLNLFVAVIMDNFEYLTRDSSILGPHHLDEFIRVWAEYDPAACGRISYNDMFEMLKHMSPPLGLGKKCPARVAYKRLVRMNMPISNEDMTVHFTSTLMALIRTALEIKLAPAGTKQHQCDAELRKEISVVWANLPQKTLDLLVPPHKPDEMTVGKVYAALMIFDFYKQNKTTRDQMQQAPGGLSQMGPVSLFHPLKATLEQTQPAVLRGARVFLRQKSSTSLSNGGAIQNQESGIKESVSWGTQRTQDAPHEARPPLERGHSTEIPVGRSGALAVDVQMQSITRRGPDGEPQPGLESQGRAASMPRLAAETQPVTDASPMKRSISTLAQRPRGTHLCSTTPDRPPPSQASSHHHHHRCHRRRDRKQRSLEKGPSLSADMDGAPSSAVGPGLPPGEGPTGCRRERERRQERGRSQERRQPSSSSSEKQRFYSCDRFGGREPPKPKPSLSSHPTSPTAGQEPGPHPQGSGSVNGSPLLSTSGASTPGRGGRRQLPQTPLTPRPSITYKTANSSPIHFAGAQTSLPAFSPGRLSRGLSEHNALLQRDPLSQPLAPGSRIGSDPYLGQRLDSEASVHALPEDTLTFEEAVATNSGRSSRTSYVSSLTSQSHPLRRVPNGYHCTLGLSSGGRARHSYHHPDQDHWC
- Sequence (P54289 25-956 partner limits assumed): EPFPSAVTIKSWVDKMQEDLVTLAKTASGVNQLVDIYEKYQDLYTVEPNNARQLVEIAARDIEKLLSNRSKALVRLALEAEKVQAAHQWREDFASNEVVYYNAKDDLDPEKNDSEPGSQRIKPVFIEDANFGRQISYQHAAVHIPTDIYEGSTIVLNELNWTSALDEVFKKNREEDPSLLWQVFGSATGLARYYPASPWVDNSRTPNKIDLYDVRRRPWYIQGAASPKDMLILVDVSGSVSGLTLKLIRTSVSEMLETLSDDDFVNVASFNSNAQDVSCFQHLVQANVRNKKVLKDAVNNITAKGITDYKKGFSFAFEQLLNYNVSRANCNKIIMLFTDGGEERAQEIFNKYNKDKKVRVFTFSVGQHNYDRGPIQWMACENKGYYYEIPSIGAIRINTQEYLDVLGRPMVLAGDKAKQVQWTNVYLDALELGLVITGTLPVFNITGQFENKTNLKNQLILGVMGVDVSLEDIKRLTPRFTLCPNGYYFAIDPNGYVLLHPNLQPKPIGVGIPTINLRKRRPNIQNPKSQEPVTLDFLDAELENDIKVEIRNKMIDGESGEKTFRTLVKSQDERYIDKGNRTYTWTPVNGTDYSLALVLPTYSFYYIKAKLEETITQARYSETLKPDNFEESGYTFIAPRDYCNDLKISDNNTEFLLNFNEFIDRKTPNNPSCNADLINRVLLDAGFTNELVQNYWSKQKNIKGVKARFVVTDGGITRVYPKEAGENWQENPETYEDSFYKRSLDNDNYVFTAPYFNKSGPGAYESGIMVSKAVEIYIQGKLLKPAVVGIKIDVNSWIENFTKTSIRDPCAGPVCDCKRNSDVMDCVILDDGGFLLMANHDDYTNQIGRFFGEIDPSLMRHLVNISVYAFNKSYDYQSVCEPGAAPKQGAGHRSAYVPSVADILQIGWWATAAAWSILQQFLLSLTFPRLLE
- Sequence (P54289 957-1103 partner limits assumed): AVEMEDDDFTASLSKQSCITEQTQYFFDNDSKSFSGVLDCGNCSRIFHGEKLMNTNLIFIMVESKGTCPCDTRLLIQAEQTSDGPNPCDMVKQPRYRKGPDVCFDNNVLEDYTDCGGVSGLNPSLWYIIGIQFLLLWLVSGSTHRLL
- Sequence (P54284 whole entry partner): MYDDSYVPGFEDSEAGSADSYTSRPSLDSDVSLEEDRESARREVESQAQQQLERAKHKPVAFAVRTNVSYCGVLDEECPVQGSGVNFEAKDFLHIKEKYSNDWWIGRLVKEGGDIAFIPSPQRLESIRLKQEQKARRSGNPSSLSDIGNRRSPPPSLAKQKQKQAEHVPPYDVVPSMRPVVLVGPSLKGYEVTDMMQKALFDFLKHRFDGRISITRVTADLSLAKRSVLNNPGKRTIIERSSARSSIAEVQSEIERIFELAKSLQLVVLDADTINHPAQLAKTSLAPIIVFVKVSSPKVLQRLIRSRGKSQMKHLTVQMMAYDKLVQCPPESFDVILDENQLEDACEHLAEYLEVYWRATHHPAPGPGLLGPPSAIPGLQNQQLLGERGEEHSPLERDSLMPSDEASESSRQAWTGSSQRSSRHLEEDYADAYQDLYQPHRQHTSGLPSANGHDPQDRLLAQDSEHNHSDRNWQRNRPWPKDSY
- Run description: Inhibition of N-type calcium flux in IMR-32 cells (Indo-1 fluorescence, nitrendipine present)
- Assay type: cell-based
- Condition notes: 1 μM
Output spec: scalar in %, unitless text.

Record excerpt, results attached:
[[record]]
compound = "Cc1cc(C)cc(NC(=O)N[C@@H](CC(C)C)C(=O)N[C@@H](Cc2ccc(OCc3ccccc3)cc2)C(=O)OC(C)(C)C)c1 (relative stereo)"
unit = "%"
quantitative_result = 31

[[record]]
compound = "CC(C)C[C@H](NC(=O)c1ccc(F)cc1)C(=O)N[C@@H](Cc1ccc(OCc2ccccc2)cc1)C(=O)OC(C)(C)C (relative stereo)"
unit = "%"
quantitative_result = 29


# next compound below
Query :: Please state recorded Inhibition of Calcium Flux in IMR-32 Cells % Inhibition at 1 μM (tested on N-type Ca2+ channels in IMR-32 cells (Homo sapiens, UniProt Q00975)) of COc1cc(NC(=O)N[C@@H](CC(C)C)C(=O)N[C@@H](Cc2ccc(OCc3ccccc3)cc2)C(=O)OC(C)(C)C)cc(OC)c1OC (relative stereo)
Result :: 10

* * *

- Study target: N-type Ca2+ channels in IMR-32 cells (Homo sapiens)
- Run description: Inhibition of N-type calcium flux in IMR-32 cells (Indo-1 fluorescence, nitrendipine present)
- Condition notes: IMR-32 cells, 5 μM nitrendipine, K+ depolarization
- Description: Measurement of N-type Ca^2+ Channel Blocking Potencies of Compounds in IMR-32 Cells Using the Fluorescent Ca^2+ Indicator Indo-1 IMR-32 cells are a human tumoral cell line of neural origin. […] Calcium flux into these cells may be induced by stimulation with elevated potassium concentrations. The L-channel component of calcium flux may be blocked by adding 5 μM nitrendipine. […] Intracellular calcium concentrations are measured using the fluorescent calcium indicator Indo 1. […]
Measurement type: pIC50
As a rule, pIC50 stands for the negative log10 of the concentration, concentration in M.

[[record]]
molecule = "CC(C)C[C@H](NC(=O)N1CCCCCC1)C(=O)N[C@@H](Cc1ccc(OCc2ccccc2)cc1)C(=O)NCCN1CCCC1 [Example 181]"
quantitative_result = 5.55


Query :: Recorded pIC50 for CC(C)C[C@H](NC(=O)N1CCCCCC1)C(=O)N[C@@H](Cc1ccc(OCc2ccccc2)cc1)C(=O)N1CCC[C@H]1CN1CCCC1 [Example 179] , please?
Result :: 5.85
